Source of measurements: patent US20200247855A1

- Assayed Target: CXCL10_HUMAN (human, UniProt P02778 22-98)
- Sequence (P02778 22-98): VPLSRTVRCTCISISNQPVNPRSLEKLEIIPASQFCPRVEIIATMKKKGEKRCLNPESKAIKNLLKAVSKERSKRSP
- Test Method Notes: BLI
Measure Name: Kd
Please provide the amount together with its unit, number first.

Please give Kd for each item listed below.
1. P1090_IXORI (other) GSKELSGPESSENSIEAAFCDTNCTEGTDGVWSGCSAGCFCVHVGNSTVGRCMTFNGVDGG
2. P1142_AMBCA (other) KPQILQRTDHSTDSDWDPQMCPETCNPSKNISCSSECLCVTLGGGDETGTCFNMSGVDWLGHAQASDGHNDG
3. P1126_AMBCA (other) KPQILQRTDKSTDSEWDPQTCPETCIPSKNITCSDGCVCVKLGEEEEGTCFNMTGVDWLGSPSDD

["23.9 nM", "7.46 nM", "7.9 nM"]
